Readings of furin cleavage Z-score for the listed sequences
studySystem: furin, P09958;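 also: purified furin at 1:10 enzyme:substrate in 50 mM HEPES pH 7.5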
Sequence (P09958 whole entry): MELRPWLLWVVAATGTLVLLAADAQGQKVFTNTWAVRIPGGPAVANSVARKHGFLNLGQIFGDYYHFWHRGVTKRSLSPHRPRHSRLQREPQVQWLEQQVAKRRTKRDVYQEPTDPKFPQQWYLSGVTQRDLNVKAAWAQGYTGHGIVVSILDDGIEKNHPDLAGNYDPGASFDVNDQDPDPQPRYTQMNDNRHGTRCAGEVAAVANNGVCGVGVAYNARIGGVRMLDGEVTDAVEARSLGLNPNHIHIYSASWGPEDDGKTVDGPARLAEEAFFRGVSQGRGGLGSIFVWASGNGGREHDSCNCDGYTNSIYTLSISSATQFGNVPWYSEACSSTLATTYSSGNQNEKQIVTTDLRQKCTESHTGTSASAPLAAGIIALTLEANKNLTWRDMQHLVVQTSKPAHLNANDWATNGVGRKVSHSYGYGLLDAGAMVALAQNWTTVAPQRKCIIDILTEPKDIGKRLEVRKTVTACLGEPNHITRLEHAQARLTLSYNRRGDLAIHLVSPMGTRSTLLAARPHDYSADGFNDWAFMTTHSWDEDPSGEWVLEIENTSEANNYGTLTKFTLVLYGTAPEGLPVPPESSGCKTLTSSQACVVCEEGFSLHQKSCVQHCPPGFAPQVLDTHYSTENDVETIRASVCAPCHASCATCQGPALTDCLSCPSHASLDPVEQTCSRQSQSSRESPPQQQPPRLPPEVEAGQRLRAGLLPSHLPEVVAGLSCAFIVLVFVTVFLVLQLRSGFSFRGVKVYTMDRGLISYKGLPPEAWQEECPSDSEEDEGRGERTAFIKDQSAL
experiment: furin cleavage Z-score vs untreated control; higher = more cleavage, active = 3.5 or more, inactive = 1 or less, 8 variable residues between constant flanks
conditionContext: 15 min
The other results are listed elsewhere or left out. The hit rate among all sequences tested is not known here.
Answer with a number only.

Completed entries (count: 6):
>>> measurement("CARRKRLRQDAGNASASA [FS-2780]")
0.0552
>>> measurement("CAEVLCHRPSAGNASASA [HC2345]")
-0.279
>>> measurement("CARKRKGSDDAGNASASA [FS-2696]")
0.267
>>> measurement("CAGHTVSGFVAGNASASA [HC357]")
-0.476
>>> measurement("CAVVCCSMQYAGNASASA [HC2082]")
0.703
>>> measurement("CARKRRSTDFAGNASASA [FS-2217]")
11.2

## Task Reported furin cleavage Z-score for CARSIRDAEDAGNASASA [FS-2805] : what is it?
## Result 0.756

## Task What do you get for CAETVVCCSMAGNASASA [HC2138] ?
## Result 1.46

## Task What do you get for CARRKRKNKDAGNASASA [FS-1967] ?
## Result 0.207

## Task What do you get for CARGDRFSEDAGNASASA [FS-2931] ?
## Result -0.738

## Task What do you get for CARHTRSAEDAGNASASA [FS-2681] ?
## Result 11.4

## Task What do you get for CARIIRSSEDAGNASASA [FS-2950] ?
## Result 3.61

## Task What do you get for CACLVDYPYRAGNASASA [HC464] ?
## Result -2.22

## Task What do you get for CARHTPVNSWAGNASASA [HC1571] ?
## Result 0.608

## Task What do you get for CALKATCTANAGNASASA [HC1266] ?
## Result 2.96

Reference source for all entries: the supplement of paper PMC3545927
